Tested on: SK-MEL-28
Test: NCI tumour cell line growth inhibition, 48 h
Activity calls are given as the source filed them. Cut-off read from the data, not from the text of the source: active = GI50 up to about 1.1 µM and inactive = higher.
Result category, one only: active, inactive

Consider the worked cases shown below.
[
  {
    "Compound": "C#Cc1c(C)c(/C=C/C(C)=C/C=C/C(C)=C/C(=O)OC)n(C)c1C",
    "Study System": "SK-MEL-28",
    "Group Label": "inactive"
  },
  {
    "Compound": "CC(C)(C)/N=c1/n(C(C)(C)C)oc(=O)n1-c1ccccc1",
    "Study System": "SK-MEL-28",
    "Group Label": "inactive"
  },
  {
    "Compound": "N=C(N)NS(=O)(=O)c1ccc(Nc2c3ccccc3nc3c(C(=O)N4CCN(CCO)CC4)cccc23)cc1",
    "Study System": "SK-MEL-28",
    "Group Label": "inactive"
  },
  {
    "Compound": "CCCC/C=C1\\CCC(CN2CCOCC2)C1=O (stereo not drawn)",
    "Study System": "SK-MEL-28",
    "Group Label": "inactive"
  }
]

(Q) Status in this test for `O=C1NCC2(CCNCC2)N1c1ccccc1` ?
(A) inactive

(Q) And the next one, COC(=O)/C(=N/O)C(C(=O)OC)C(=O)C(=O)Nc1c(Cl)cc(C)cc1S(=O)(=O)O (stereo not drawn) ?
(A) inactive

(Q) Input `CC(C)C[C@H](NC(=O)[C@H](CCc1ccccc1)NC(=O)c1ccc2ccccc2n1)B(O)O`
(A) active

(Q) Now give it for `CC(=O)O/N=C/c1cc2c(cc1Br)OCO2` too.
(A) inactive

(Q) Moving on to COc1cc2c3c(c1OC)-c1ccccc1C(C(O)c1ccccc1)C3N(C)CC2 (stereo not drawn)
(A) inactive

(Q) What do we get for `COC(=O)CC(=O)C[P+](c1ccccc1)(c1ccccc1)c1ccccc1` ?
(A) inactive

(Q) Same for `COC(=O)/C(=C\C(=O)c1ccc(Br)cc1)NN=C(c1ccccc1)c1ccccc1`
(A) inactive

(Q) What do you get for `N=C(N)SCC(=O)O` ?
(A) inactive

(Q) Now the same for `CCNC(=S)N/N=C1\C(=O)Nc2ccc([N+](=O)[O-])cc21`
(A) inactive

(Q) Check `N#C/N=C(/N)NCO` too.
(A) inactive

(Q) # repeat for CC(NC1CCCC[C@@H]1O)c1ccccc1 (stereo partly drawn)
(A) inactive

====

compounds and their reported GI50
Tested on: UACC-257
Assay: NCI tumour cell line growth inhibition, 48 h
Calls of active or inactive are those of the source. Cut-off read from the data, not from the text of the source: active = GI50 up to about 1.1 µM and inactive = higher.

Some solved cases for reference:
[
  {
    "Compound": "COc1ccc2c(c1)[n+]([O-])c(C(=O)C/C(=N\\NC(=O)C[N+](C)(C)C)C(=O)Nc1cc(Cl)ccc1Cl)c(C)[n+]2[O-]",
    "GI50": "> 100 µM (inactive)"
  },
  {
    "Compound": "O=C1c2ccccc2-c2c1c(-c1cccc(Br)c1)nc1ccc3ccccc3c21",
    "GI50": "> 100 µM (inactive)"
  }
]

// below: GI50 requested for another compound
(Q) Query (compound): `CCCCc1cc2c(C)cc(=O)oc2c(O)c1O` ; field requested: GI50
(A) 20.4 µM (inactive)

====

Tested on: HCT-15
Measure: GI50

Some solved entries appear below for comparison.
[
  {
    "Compound": "CCOC(=O)/C=C/c1c[nH]c(=O)[nH]c1=O",
    "GI50": "> 75 µM"
  },
  {
    "Compound": "COC(=O)c1cc2/c(=N/O)c3ccccc3sc2o1",
    "GI50": "> 100 µM"
  },
  {
    "Compound": "Cc1ccc(/C=C2/N/C(=N\\N=C/c3ccccc3)NC2=O)cc1",
    "GI50": "30.9 µM"
  }
]

(Q) What value of GI50 has been recorded for this entry: CCCCCCCCOCC(O)COC(C)C (stereo unspecified)
(A) 27.4 µM

(Q) // next record `O=C(CC(=O)n1nc(-c2ccccc2)c(/N=N/c2ccc(Cl)cc2)c1-c1ccccc1)Nc1ccc(Cl)cc1`
(A) > 41.7 µM

(Q) Repeat with `O=c1[nH]c(Nc2ccc(Br)c(C(F)(F)F)c2)nc2[nH]cnc12`
(A) 76 µM

====

Test system: CCRF-CEM
Assay: NCI tumour cell line growth inhibition, 48 h
Calls of active or inactive are those of the source. Cut-off read from the data, not from the text of the source: active = GI50 up to about 1.1 µM and inactive = higher.
Write down the outcome that applies. Available outcomes: yes for active, no for inactive

(Q) Look up the recorded call for Cc1cc(S(=O)(=O)NC2=NNC(C)CN2)c(S)cc1Cl (stereo unspecified) in this test.
(A) no

(Q) Also `O=C(O)CNn1c(SCC(=O)O)nnc(/C=C/c2c(O)ccc3ccccc23)c1=O` ?
(A) no

(Q) Moving on to the next molecule: `Cc1c(NC(=S)NN)c(=O)n(-c2ccccc2)n1C`
(A) no

(Q) Subsequent entry: `Cc1cc2nc(CC(C(F)(F)F)C(F)(F)F)oc2cc1C`
(A) yes

(Q) Another molecule to look at: `O=C1NCC2(CCNCC2)N1c1ccccc1`
(A) no

(Q) Please answer likewise for `CC1(c2cc3c(cc2Br)OCO3)SCCCS1`
(A) no

====

Tested on: LXFL 529
Assay: NCI tumour cell line growth inhibition, 48 h
Calls of active or inactive are those of the source. Cut-off read from the data, not from the text of the source: active = GI50 up to about 1.1 µM and inactive = higher.
Measure: GI50

Worked examples, 4 compounds total:
[
  {
    "Compound": "CCc1ccccc1NC(=O)CCc1n[nH]c(=S)o1",
    "GI50": "> 100 µM (inactive)"
  },
  {
    "Compound": "COC1/C(=C\\c2ccccc2I)c2ccccc2N1C(C)=O (stereo unspecified)",
    "GI50": "12.9 µM (inactive)"
  },
  {
    "Compound": "CCC12CCCNC1c1c(n(C)c3ccccc13)C(C(=O)OC)C2 (stereo unspecified)",
    "GI50": "80.2 µM (inactive)"
  },
  {
    "Compound": "CC(=O)O/N=C/c1cc2c(cc1Br)OCO2",
    "GI50": "> 349 µM (inactive)"
  }
]

(Q) Give the measured GI50 of O=C(Nc1cc(Cl)c(Cl)cc1Cl)C(=O)C(C(=O)c1ccc2ccccc2c1)C1OC(=O)c2ccccc21 (stereo unspecified) .
(A) 10.6 µM (inactive)

(Q) Queued: `CCOC(=O)NN1C(=O)C(=P(c2ccccc2)(c2ccccc2)c2ccccc2)C(C(=O)OCC)=C1C`
(A) > 100 µM (inactive)

(Q) What do you have for CCOC1=CP(=O)(OCC)CC(C)=C1Cl (stereo unspecified) ?
(A) > 100 µM (inactive)

(Q) Would you mind doing `O=C(O)c1cc2ccc(Cl)cc2c(O)c1C1=CCCCC1` as well?
(A) 35.3 µM (inactive)

(Q) Lookup `CC1(c2cc3c(cc2Br)OCO3)SCCCS1`
(A) 45.7 µM (inactive)

(Q) Record: NC(CO)c1ccc(OCc2ccccc2)cc1 (stereo unspecified)
(A) > 100 µM (inactive)

(Q) Queued: `O=C1CNNC(Cn2nc(-c3ccccc3)c3ccccc3c2=O)=N1`
(A) > 100 µM (inactive)

(Q) Follow-up item: `CCOC(=O)C1=C(Nc2ccc(Cl)cc2Cl)OC/C1=N\NS(=O)(=O)c1ccc(C)cc1`
(A) > 100 µM (inactive)

====

System: SR
Assay: NCI tumour cell line growth inhibition, 48 h
Activity calls are given as the source filed them. Cut-off read from the data, not from the text of the source: active = GI50 up to about 1.1 µM and inactive = higher.
Attribute: GI50

Examples from the recorded data:
[
  {
    "Molecule": "CC(C)=CCC[C@@H](C)C1=C(O)C(=O)C(C)=C(Nc2ccccc2Cl)C1=O",
    "GI50": "11.5 µM (inactive)"
  },
  {
    "Molecule": "Cc1cc2c(=O)[nH]nc(N)c2c(N)n1",
    "GI50": "> 100 µM (inactive)"
  },
  {
    "Molecule": "NC(CO)c1ccc(OCc2ccccc2)cc1 (configuration not stated)",
    "GI50": "31.2 µM (inactive)"
  }
]

(Q) Give its GI50 value. Item: `Cc1cc(S(=O)(=O)n2ccnc2Oc2cccc(Cl)c2)c(SSc2cc(Cl)c(C)cc2S(=O)(=O)n2ccnc2Oc2cccc(Cl)c2)cc1Cl`
(A) 9.06 µM (inactive)

(Q) Would you mind doing `COc1ccc(-c2cc(C(=O)Nc3cccc(C(F)(F)F)c3)nc(S)n2)cc1` as well?
(A) > 100 µM (inactive)

(Q) Cool, now `O=C(CSc1c2ccccc2nc2ccccc12)Nc1ccccc1-c1ccccc1NC(=O)CSc1c2ccccc2nc2ccccc12`
(A) 11.1 µM (inactive)

(Q) Follow-up item: `COc1ccc(NC(=O)CC(=O)N/N=C/c2ccc(N(CCC#N)S(=O)(=O)c3ccccc3)cc2)cc1`
(A) > 100 µM (inactive)

(Q) // same read-out, input: `O=C1NCC2(CCNCC2)N1`
(A) > 100 µM (inactive)

(Q) Could you do the same for `COc1ccc(-c2c(N)n(-c3cccc(C(=O)O)c3)c(=O)c3cc([N+](=O)[O-])ccc23)cc1` , please?
(A) > 100 µM (inactive)

(Q) Could you do the same for `CCCCCCCC/C=C\CCCCCCCC(=O)NCCN(CCN)C(=O)CCCCCCC/C=C\CCCCCCCC` , please?
(A) > 100 µM (inactive)

(Q) What would you report for COc1ccc(C(C#N)NCCCCCCNC(C#N)c2ccc(OC)cc2)cc1 (configuration not stated) ?
(A) > 100 µM (inactive)

(Q) Entry `C#C[C@]1(O)CC[C@H]2[C@@H]3CCC4=C/C(=N\OCCN(CC)CC)CC[C@]4(C)[C@H]3CC[C@@]21C` please
(A) 2.94 µM (inactive)

(Q) Also `CC(=O)O/N=C/c1cc2c(cc1Br)OCO2` ?
(A) > 349 µM (inactive)

(Q) And then O=C1NC2C=CN(Cc3ccccc3)C=C2C(=O)N2CCCC12 (configuration not stated) , what is it?
(A) > 100 µM (inactive)

(Q) Now give it for `O=C1OC(c2ccccc2)=N/C1=C/c1cccs1` too.
(A) 70 µM (inactive)

(Q) Now the molecule OC1C2C=CCC1CCC2 (configuration not stated)
(A) > 100 µM (inactive)

(Q) Next molecule up: CN1C(=O)C(O)C[C@@H]1c1ccc(F)cc1 (some centres not stated)
(A) > 100 µM (inactive)

(Q) Please answer likewise for `COn1cc(CO)c2ccccc21`
(A) 31.8 µM (inactive)

(Q) Entry O=C(c1ccccc1)C1C[C@H]2CO[C@H](c3ccccc3)N2C1=O (some centres not stated) please
(A) > 100 µM (inactive)

(Q) Another molecule to check: COC(=O)/C(=N/O)C(C(=O)OC)C(=O)C(=O)Nc1c(Cl)cc(C)cc1S(=O)(=O)O (configuration not stated)
(A) 20.1 µM (inactive)

(Q) Try this molecule too: `CCCCCCn1c(SC)nc(COC(=O)NC)c1COC(=O)NC`
(A) 19.7 µM (inactive)

(Q) Same lookup for `CCSCCCC(=O)O` , please.
(A) > 100 µM (inactive)

Source of measurements: ChEMBL document CHEMBL1201862
